- System: HCC 2998
- experiment-description: Growth inhibition of human HCC2998 cells at 10^-5 M incubated for 48 hrs by sulforhodamine B assay
- Type: functional
- condition-context: HCC 2998, 48 h, read-out: GI
inhibition of growth at 10 µM vs -10%: at or above is Met, below is Not met.

Recorded results for 4 compounds are shown here.
Problem: Could you please find out whether CCOC(=O)CSC1=Nc2c(sc3ccc(Cl)cc23)C(c2cccc([N+](=O)[O-])c2)N1 (stereo not given) has inhibition of growth at 10 µM that meets -10% or exceeds it?
Solution: Not met

Problem: Assess whether reported inhibition of growth at 10 µM for N=C1Nc2c(sc3ccc(Cl)cc23)C(c2cccc([N+](=O)[O-])c2)N1 (stereo not given) sits at -10% or higher.
Solution: Met

Problem: Kindly determine if inhibition of growth at 10 µM recorded for Oc1ccccc1C1NC(=S)Nc2c1sc1ccc(Cl)cc21 (stereo not given) is above or exactly -10%.
Solution: Not met

Problem: Does inhibition of growth at 10 µM meet or surpass -10% for O=[N+]([O-])c1cccc(C2NC(=S)Nc3c2sc2ccc(Cl)cc32)c1 (stereo not given) ?
Solution: Not met

// switching to the query compound
Problem: Does the compound O=C1CSC2=Nc3c(sc4ccc(Cl)cc34)C(c3cccc([N+](=O)[O-])c3)N12 (stereo not given) have recorded inhibition of growth at 10 µM that is -10% or more?
Solution: Not met
